Test system: NCI-60 human tumor cell lines
Assay: NCI-60 five-dose assay, mean graph midpoint
Format: cell-based
Conditions: Homo sapiens, read-out: cytotoxicity (GI50, μM) MGM, mean graph midpoint of growth inhibition from 5 dose assay, ranging from 10^−8–10^−4 M
Quick rule for you: GI50 under 1 µM gets Criterion met, anything else gets Criterion not met.

compound	subject.of.test	answer.label
CC[C@@]1(O)C(=O)OCc2c1cc1n(c2=O)Cc2cc3c(CN(C)C)c(O)ccc3nc2-1 [Compound 2, topotecan, reference compound]	NCI-60 human tumor cell lines	Criterion met
O=C1c2ccccc2-c2c1c1ccc(C(F)(F)F)cc1c(=O)n2CCCn1ccnc1	NCI-60 human tumor cell lines	Criterion not met
O=C1c2ccccc2-c2c1c1ccc(Cl)cc1c(=O)n2C[C@H](O)CO	NCI-60 human tumor cell lines	Criterion not met
O=C1c2ccccc2-c2c1c1ccc(F)cc1c(=O)n2CCCN1CCOCC1	NCI-60 human tumor cell lines	Criterion not met
O=C1c2ccccc2-c2c1c1ccc(Cl)cc1c(=O)n2CCCN1CCOCC1	NCI-60 human tumor cell lines	Criterion not met

Kindly review the next compound as well.
Task: GI50 under 1 µM? Item: "O=C1c2ccccc2-c2c1c1ccc(F)cc1c(=O)n2CCCn1ccnc1"
Output: Criterion met

* * *

Tested on: NCI-60 human tumor cell lines
Assay: NCI-60 five-dose assay, mean graph midpoint
Format: cell-based
Conditions: human
endpoint.name: GI50 (nM)
Answer in nM, number only, no unit symbol.

Task: Determine its reported GI50: "O=C1c2ccccc2-c2c1c1ccc(I)cc1c(=O)n2CCCn1ccnc1"
Output: 1620
